B1: Peroxisomal bifunctional enzyme (Homo sapiens), Q08426 (parent)
chain: MAEYTRLHNALALIRLRNPPVNAISTTLLRDIKEGLQKAVIDHTIKAIVICGAEGKFSAGADIRGFSAPRTFGLTLGHVVDEIQRNEKPVVAAIQGMAFGGGLELALGCHYRIAHAEAQVGLPEVTLGLLPGARGTQLLPRLTGVPAALDLITSGRRILADEALKLGILDKVVNSDPVEEAIRFAQRVSDQPLESRRLCNKPIQSLPNMDSIFSEALLKMRRQHPGCLAQEACVRAVQAAVQYPYEVGIKKEEELFLYLLQSGQARALQYAFFAERKANKWSTPSGASWKTASARPVSSVGVVGLGTMGRGIVISFARARIPVIAVDSDKNQLATANKMITSVLEKEASKMQQSGHPWSGPKPRLTSSVKELGGVDLVIEAVFEEMSLKKQVFAELSAVCKPEAFLCTNTSALDVDEIASSTDRPHLVIGTHFFSPAHVMKLLEVIPSQYSSPTTIATVMNLSKKIKKIGVVVGNCFGFVGNRMLNPYYNQAYFLLEEGSKPEEVDQVLEEFGFKMGPFRVSDLAGLDVGWKSRKGQGLTGPTLLPGTPARKRGNRRYCPIPDVLCELGRFGQKTGKGWYQYDKPLGRIHKPDPWLSKFLSRYRKTHHIEPRTISQDEILERCLYSLINEAFRILGEGIAASPEHIDVVYLHGYGWPRHKGGPMFYASTVGLPTVLEKLQKYYRQNPDIPQLEPSDYLKKLASQGNPPLKEWQSLAGSPSSKL

- Variants of: B1
- test_settings: with actg_human ACTG1, P63261

- variant_key: "S703F"
  effect of a mutation on the interaction: "with no effect"
- variant_key: "R556G"
  effect of a mutation on the interaction: "with no effect"
- variant_key: "L715S"
  effect of a mutation on the interaction: "with no effect"
